# STUDY SYSTEM: T1, human PD-L1-his taq protein (human, UniProt Q9NZQ7 19-239, limits assumed)
# T1 construct: also called recombinant PD-L1 protein; recombinant human PD-L1; not shown: his tag
# T1 sequence (Q9NZQ7 19-239 limits assumed): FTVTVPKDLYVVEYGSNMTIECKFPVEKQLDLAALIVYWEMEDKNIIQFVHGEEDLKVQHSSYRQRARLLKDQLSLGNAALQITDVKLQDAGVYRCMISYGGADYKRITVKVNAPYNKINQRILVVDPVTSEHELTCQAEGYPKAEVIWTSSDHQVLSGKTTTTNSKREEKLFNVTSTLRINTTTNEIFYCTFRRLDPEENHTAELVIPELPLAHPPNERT
# ASSAY SUMMARY: SPR Biacore T200, antibody captured, PD-L1-his injected
MEASURED QUANTITY: koff (s⁻¹)
Quick reminder: number only, in s⁻¹, skip the unit.

Before answering, review these 3 worked examples.
>  <BINDER>
Hu1210-28 (antibody, V domains shown, Hu1210 VH.5a x Vk.2a; human gamma 1 / kappa constant domains) VH: EVQLVESGGGLVQPGGSLRLSCAASGFTFSSYDMSWVRQAPGKGLEWVATISDGGGYIYYSDSVKGRFTISRDNAKNSLYLQMNSLRAEDTAVYICAREFGKRYALDYWGQGTLVTVSS VL: DIQMTQSPSSLSASVGDRVTITCKASQDVTPAVAWYQQKPGKAPKLLIYSTSSRYTGVPDRFTGSGSGTDFTLTISSLQPEDFATYYCQQHYTTPLTFGQGTKLEIKR

>  <MEASURED QUANTITY>
koff

>  <MEAS VALUE>
0.000108

$$$$
>  <BINDER>
H1210 chimera (antibody, V domains shown, also called chimeric antibody) VH: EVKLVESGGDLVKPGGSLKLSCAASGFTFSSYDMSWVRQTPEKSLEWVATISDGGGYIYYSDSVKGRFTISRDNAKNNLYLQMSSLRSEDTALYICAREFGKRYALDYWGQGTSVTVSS VL: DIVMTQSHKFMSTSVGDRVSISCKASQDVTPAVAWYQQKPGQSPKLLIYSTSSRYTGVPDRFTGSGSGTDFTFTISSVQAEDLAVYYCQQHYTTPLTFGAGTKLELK

>  <MEASURED QUANTITY>
koff

>  <MEAS VALUE>
3.27e-05

$$$$
>  <BINDER>
Hu1210-14 (antibody, V domains shown, Hu1210 VH.3a x Vk.1; human gamma 1 / kappa constant domains) VH: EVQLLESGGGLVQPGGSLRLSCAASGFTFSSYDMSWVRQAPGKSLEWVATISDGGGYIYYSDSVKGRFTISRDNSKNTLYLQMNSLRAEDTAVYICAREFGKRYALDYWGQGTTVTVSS VL: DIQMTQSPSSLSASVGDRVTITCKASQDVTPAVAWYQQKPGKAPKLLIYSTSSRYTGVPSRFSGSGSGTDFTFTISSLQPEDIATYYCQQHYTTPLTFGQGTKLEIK

>  <MEASURED QUANTITY>
koff

>  <MEAS VALUE>
5.29e-05

$$$$

Pending binder:
Please give the measured koff for this binder: Hu1210-36 (antibody, V domains shown, Hu1210 VH.5d (printed 'VH.Sd') x Vk.2; human gamma 1 / kappa constant domains) VH: EVQLVESGGGLVQPGGSLRLSCAASGFTFSSYDMSWVRQTPEKSLEWVATISDGGGYIYYSDSVKGRFTISRDNAKNNLYLQMNSLRAEDTAVYICAREFGKRYALDYWGQGTLVTVSS VL: DIQMTQSPSSLSASVGDRVTITCKASQDVTPAVAWYQQKPGKAPKLLIYSTSSRYTGVPSRFSGSGSGTDFTLTISSLQPEDFATYYCQQHYTTPLTFGQGTKLEIKR
7.85e-05
